tested on: OVCAR-5 ovarian; assay: NCI tumour cell line growth inhibition, 48 h
readout: TGI (µM)
Give just the numeric value; µM need not be written.

NC(=O)OCCn1cc(-c2nc(-c3c[nH]c4ncccc34)cs2)c2ccccc21 ... 43.8

Asked: In one line, give reported TGI of the entry `O=C(c1cccs1)N(C(=O)N1CCN(c2ccccc2)CC1)S(=O)(=O)c1ccccc1` .
Given back: 55.7

----------
system: SF-268 CNS; test: NCI tumour cell line growth inhibition, 48 h
Each entry below carries its recorded TGI.

# count of solved cases: 6
CC(=O)Oc1ccc2c(c1)c1c(=O)oc(C)nc1n2Cc1ccccc1 ... > 100 µM
Fc1ccc(C(=C2CCN(CCc3ccc4[nH]c(=S)[nH]c4c3)CC2)c2ccc(F)cc2)cc1 ... 25.9 µM
O=C(Oc1cccnc1)c1cc2cc(CCl)ccc2oc1=O ... 45.3 µM
O[C@H](c1cc(C(F)(F)F)nc2c(C(F)(F)F)cccc12)[C@@H]1CCCCN1 ... 15 µM
COc1cc2c3c(n(CCCOC(=O)C(F)(F)F)c(=O)c2cc1OC)-c1cc2c(cc1C3=O)OCO2 ... > 32.2 µM
[N-]=[N+]=NC1C(O)C(CO)OC1n1ccc(=O)[nH]c1=O (stereo unspecified) ... > 875 µM

Asked: In one line, give reported TGI of the entry `Cc1ccc(NC(=O)CSc2nnc(-c3ccc(N=Cc4ccc(Cl)cc4)cc3)o2)cc1` .
Given back: > 100 µM

Asked: In one line, give reported TGI of the entry CN1C(=O)c2ccccc2OC12C=Cc1ccc(O)cc1O2 (stereo unspecified) .
Given back: > 100 µM

Asked: In one line, give reported TGI of the entry `O=C(Nc1nncs1)NS(=O)(=O)n1c(=S)sc2ccccc21` .
Given back: > 100 µM

Asked: In one line, give reported TGI of the entry CCCCCC(=O)CCCCCCCC(O)CC(=O)OCC (stereo unspecified) .
Given back: > 100 µM

Asked: In one line, give reported TGI of the entry COC(=O)CC1C=CC(C)(OC)OO1 (stereo unspecified) .
Given back: > 100 µM

----------
test system: CCRF-CEM leukemia; experiment: NCI tumour cell line growth inhibition, 48 h
readout: GI50

O=S(=O)(Nc1ccc(F)cc1F)c1ccc(-c2cnc(C3CC3)o2)cc1 ... 0.856 µM

As a next step, examine the compound that follows.
Asked: In one line, give reported GI50 of the entry `Cn1cc(C2=C(c3cccc(Br)c3)C(=O)NC2=O)c2ccccc21` .
Given back: 12.3 µM

----------
Each entry below carries its recorded TGI.
tested on: HS 578T breast; experiment: NCI tumour cell line growth inhibition, 48 h

# count of solved cases: 3
COc1cccc2cc(C(=O)O)c(=O)oc12 ... > 100 µM
Cc1cc(C)c2c(c1)C/C(=C\c1ccccc1C(=O)O)C2=O ... > 100 µM
NC(=O)OCCn1cc(-c2nc(-c3c[nH]c4ncccc34)cs2)c2ccccc21 ... 4.25 µM

Asked: In one line, give reported TGI of the entry `Cc1c(C)n(-c2ccccc2)c2nc(S(C)(=O)=O)nc(S(C)(=O)=O)c12` .
Given back: > 85.5 µM

Asked: In one line, give reported TGI of the entry O=C1c2cccc3cccc(c23)C2NCCCN12 (stereo unspecified) .
Given back: > 100 µM

Asked: In one line, give reported TGI of the entry `CCCCCCOc1ccc(Nc2c(O)c3c(c(O)c2Cl)C(=O)C=CC3=O)cc1` .
Given back: 8.39 µM

Asked: In one line, give reported TGI of the entry `COc1cc(C(=O)N2CCN(c3ncccn3)CC2)c(N)cc1OCc1ccccc1` .
Given back: > 100 µM

Asked: In one line, give reported TGI of the entry COc1ccc2c(c1)nc1n2C(c2c(Cl)cccc2Cl)SC1 (stereo unspecified) .
Given back: 49.4 µM

Asked: In one line, give reported TGI of the entry `c1ccc2nc3c(nc2c1)sc1ccccc13` .
Given back: > 100 µM

Asked: In one line, give reported TGI of the entry COc1c(OC(C)=O)c(OC(C)=O)cc2c1-c1ccc(SC)c(=O)cc1C(NC(C)=O)CC2 (stereo unspecified) .
Given back: 0.701 µM

Asked: In one line, give reported TGI of the entry O=C(O)CC(NC(=O)CP(=O)(O)O)C(=O)O (stereo unspecified) .
Given back: > 10000 µM

----------
Each entry below carries its recorded TGI.
test system: HT29 colon; assay: NCI tumour cell line growth inhibition, 48 h

CCN(Cc1ccccc1C)c1ccc(CO)c(Cl)c1 ... 26.3 µM
COc1cccc2cc(C(=O)O)c(=O)oc12 ... > 100 µM
CC1COC(C)(C)P(=O)(c2ccccc2)C1 (stereo unspecified) ... > 100 µM

Asked: Given `CNS(=O)(=O)NNS(=O)(=O)c1ccc(Br)cc1` , report its TGI on HT29 colon.
Given back: > 100 µM

Asked: Given `Cc1c(/C=N/NC(=O)c2ccc(Cl)cc2)c(=O)n(-c2ccccc2)n1C` , report its TGI on HT29 colon.
Given back: > 100 µM

Asked: Given `Cn1cc(C2=C(c3cccc(Br)c3)C(=O)NC2=O)c2ccccc21` , report its TGI on HT29 colon.
Given back: > 25 µM

----------
tested on: NCI-H460 lung; assay: NCI tumour cell line growth inhibition, 48 h
readout: TGI

COc1ccc(CC2c3cc(OC)c(OC)cc3CC[N+]2(C)C)cc1OC (stereo not drawn) ... > 100 µM
O=c1cc(CO)oc(C(O)c2ccccc2)c1O (stereo not drawn) ... > 100 µM
CCOP(=O)(COCCn1ncc(=O)[nH]c1=O)OCC ... > 100 µM

Asked: In one line, give reported TGI of the entry `N#Cc1[nH]c(=S)[nH]c1N` .
Given back: > 100 µM

Asked: In one line, give reported TGI of the entry `c1ccc([P+](CC[P+](c2ccccc2)(c2ccccc2)c2ccccc2)(c2ccccc2)c2ccccc2)cc1` .
Given back: 35 µM

Asked: In one line, give reported TGI of the entry CC1=C(C(=O)Nc2ccc(Cl)c(Cl)c2)C(c2cccc(Oc3ccccc3)c2)NC(=O)N1 (stereo not drawn) .
Given back: 32.8 µM

Asked: In one line, give reported TGI of the entry `Cc1ccc(NC(=O)CSc2nnc(-c3ccc(N=Cc4ccc(Cl)cc4)cc3)o2)cc1` .
Given back: > 100 µM

Asked: In one line, give reported TGI of the entry `CCOC(=O)c1c(NC(=O)OC)c(C#N)c2n1CCCCC2` .
Given back: > 100 µM

Asked: In one line, give reported TGI of the entry `O=S(=O)(Nc1ccc(F)cc1F)c1ccc(-c2cnc(C3CC3)o2)cc1` .
Given back: 28.2 µM

Asked: In one line, give reported TGI of the entry `Cc1cc(C)c(C[C@H]2COC(=O)[C@]2(O)Cc2c(C)cc(C)cc2C)c(C)c1` .
Given back: 33.3 µM

Asked: In one line, give reported TGI of the entry `O=S1(=O)Cc2ccc3c4c2-c2c(ccc5ccc(c-4c25)CS(=O)(=O)C3)C1` .
Given back: > 100 µM

Asked: In one line, give reported TGI of the entry `COc1ccc(CCNC(=O)c2ccc(NC3=C(Cl)C(=O)N(Cc4ccccc4)C3=O)cc2)cc1OC` .
Given back: > 100 µM

Asked: In one line, give reported TGI of the entry `O=P1(c2ccccc2)CCCCC1` .
Given back: > 100 µM

----------
test system: 786-0 renal; assay: NCI tumour cell line growth inhibition, 48 h
Each entry below carries its recorded TGI.

# count of solved cases: 2
Nc1nc(NCC2(CO)CC2)cc(=O)[nH]1 ... > 100 µM
Cc1nc2ccc(NC(=S)Nc3ccccc3)cc2c(=O)n1-c1ccccc1 ... > 100 µM

Asked: In one line, give reported TGI of the entry `CC1(C)CC(=O)C(C=NC(=O)c2ccncc2)=C(O)C1` .
Given back: > 100 µM

----------
Each entry below carries its recorded TGI.
tested on: HOP-62 NSCLC; assay: NCI tumour cell line growth inhibition, 48 h

Cc1nc([N+](=O)[O-])cn1CC(=N)N ... > 100 µM

As a next step, examine the compound that follows.
Asked: In one line, give reported TGI of the entry `CCOC(=O)CO/N=C1/C(c2c(O)[nH]c3ccccc23)=Nc2ccccc21` .
Given back: 46 µM

----------
Each entry below carries its recorded GI50.
system: UACC-257 melanoma; assay: NCI tumour cell line growth inhibition, 48 h

COc1ccc(CCNC(=O)c2ccc(NC3=C(Cl)C(=O)N(Cc4ccccc4)C3=O)cc2)cc1OC ... 20.3 µM
COCC1(CO)C(=O)C2CCN1CC2 (stereo not given) ... 17.7 µM
O=C(Nc1ccc(F)cc1)c1cc(S(=O)(=O)Nc2nc3ccccc3o2)c(SCc2ccccc2)cc1Cl ... 13.5 µM
CC(=O)Oc1ccccc1C(=O)Nc1ncc([N+](=O)[O-])s1 ... 2.16 µM
OCCCNc1nccc(-c2c(-c3ccc(F)cc3)nn3cc(C(F)(F)F)ccc23)n1 ... > 23.4 µM
CC1=C(C(=O)Nc2ccc(Cl)c(Cl)c2)C(c2cccc(Oc3ccccc3)c2)NC(=O)N1 (stereo not given) ... 11.9 µM

Asked: In one line, give reported GI50 of the entry `CCn1c(=O)c2c(=O)c3c4c(oc3oc2c2ccccc21)C(=O)c1ccccc1C4=O` .
Given back: > 100 µM

Asked: In one line, give reported GI50 of the entry `C1=C\COCc2cc(ccc2OCCN2CCCC2)Nc2nccc(n2)-c2cccc(c2)COC/1` .
Given back: 2.53 µM

Asked: In one line, give reported GI50 of the entry `O=C1NC(=NCCc2cccc(Cl)c2)S/C1=C\c1ccc2ncccc2c1` .
Given back: > 25 µM

Asked: In one line, give reported GI50 of the entry `COc1cc(C(=O)N2CCN(c3ncccn3)CC2)c(N)cc1OCc1ccccc1` .
Given back: > 100 µM
